Assay: yeast display, Sf9 membrane polyspecificity reagent, FACS + sequencing; frameworks hold sequencing errors
experimental-readout: polyreactivity (PSR sort gate)

Study these solved cases before continuing.
QVQLVESGGGLVQAGGSLRLSCAASGSTFGHYAMGWYRQAPGKERELVAAITWSGGSTYYADSVKGRFTISRDNAKNTVYLQMNSLKPEDTAVYYCNAVTRRSAQVGHDYWGQGTQVTVSS high polyreactivity
QVQLVESGGGLVQAGGSLRLSCASSGFIFSSYAMGWYRQAPGKERELVAAISLRSTTTYYADSVKGRFTISRDNAKNSVYLQMNSLKPEDTAVDYCAKGGSRDRYGYWGQGTQVTVSS high polyreactivity
QVQLVESGGALLQAGGSLRLSCAASGRTFGYNAMGWYRQAPGKEREMVAAITYSGGRTSYADSVKGRFTISRDNAKNTVYLQMNSLKPEDTAVYYCAAQTRYYSGYNYWGQATQVTVSS high polyreactivity
QVQLEESGGGLVQAGGSLRLSCAASGNIFWGNAMGWYRQAPGKEMELVAAITSIDSSTYYADSVKGRFTISRDNAKNTVYLQMNSLKPEDTAVYYCAADGDWYGYIWQSDDGYDSWGQGTQVTVSS low polyreactivity
QVQLVESGGGLVQAGGSLRLSCAASGLTFVYYAMGWYRQAPGKERELVAVISSSGGSTYYADSVKGRFTISRDNAKNTVYLQMNSLKPEDTAVYYCAAPRQVYYQTDNDYWGQGTLVTVSS high polyreactivity
QVQLVESGGGLVQAGGSLRLSCAASGIIFQYYVMGWYRQAPGKERELVATISTRGGSTYYADSVKGRFTISRDNAKNTVYLQMNSLKPEDTAVYYCAAPYGTYAYDYWGQGTQVTVSS high polyreactivity
QVQLVESGGGLVQAGGSLRISCAASGFTFSLNGMGWYRQAPGKEREMVAAIRSGGSTNYADSVKGRFTISLDNAKYTVYIQMNSLKPEDTAVYYCATDIHSVHNNRDKHDYDYLGQGTQVTVSS low polyreactivity
QVQLVESGGGLVQAGGSLRLSCAASGSTFVRYAMGWYRQAPGKERELVAAIRGGGGTYYADSVKGRFTISRDNAKNTVYLQMNSLKPVDTAVYYCAADTYYYYWFAGYTEYDYWGQGTQVTVSS low polyreactivity
QVQLVESGGGLVQAGGSLRLSCAASGSTFVLYAMGWYRQAPGKERELVADITWSGGSTYYADSVKGRFTISRDNAMNTVYLLMNSLKPEDTAVYYCAARYPWVYYDFDYWGQGTQVTVSS low polyreactivity
QVQLVESGGGLVQAGGSLRLSWAASGLIFYDNMGWYRQAPGKERELVASISSSGGSTSYADSVKGRFTISRDNAKNTVYLQMNSLKPEDTAVYYCAAVRRGYKYVYWGQGTQVTVSS low polyreactivity

Value of polyreactivity (PSR sort gate) reported for the sequence QVQLVESGGGLVQAGGSLRLSCAASGSTFLRYAMGWYRQAPGKERELVATISRCDDGTYYADSVKGRFKISRDNEKNTVFLQMNSLKPEDNAVYYCDARSWYLYYYWGQGTQVTVSS is low polyreactivity

----------
Assay: yeast display, Sf9 membrane polyspecificity reagent, FACS + sequencing; frameworks hold sequencing errors
experimental-readout: polyreactivity (PSR sort gate)

QVQLVESGGGLVQAGGSLRLSFAASGIIFDLYAMGWYRQAPGKERELVAAITRSVGSTYYADSVKGRFTISRDNAKNTVYLQMNSLKPEDTAVYFCAAVRFAYGYTYDYWGQGTQVTVSS high polyreactivity
QVQLVESGGGLVQAGGSLRLSCAASGSTFFYYAMGWYRQAPGKERAFVAAISSSVGTTYYADSVKGRFTISRDNAKNTVYLQMNRLKPVDTAVYYCAKASSATRYVQLRQDYDYWGQGTQVTVSS low polyreactivity
QVQLVESAGGLVQAGGSLRLSCAASGSIFTYYAMGWYIQAPGKERELVAAISSDGGRTFYADSVKGRFTISRDNAKNTVYLQMNSLKPEDTAVYYCAAETNRFPGYGYWGQGTQVTVSS low polyreactivity
QVQLVESGGGLVQAGVSLRLSCAASGLTFNYYDMGWYRQAPGKERELVAAISRSGTNTSYADSEKGRFTISRDNAKNTVYLQMNSLKPEDTAVYYCNADYYSRIVGVRIYDYWGQGTQVTVSS low polyreactivity
QVQLVESGGGLVQAGGSLRLSCAASGSIFGLYAMGWYRQAPGKERELVAAITASDGSTYYADSVKGRFTISRDNAKNTVYLQMNSLKPEDTAVYYCNADAYSGYFLFDYWGQGTQVTVSS low polyreactivity
QVQLVESGGGLVQAGGSLRISCAASGRTFVRYAMGWYRQAPGKERELVAAIDSSGGRTYYADSVKGRFTISRDKAKNTVYLQMNSLKPEDTAVYYCNARRLASYRGYSWGQGTQVTVSS high polyreactivity
QVQLVESGGGLVQAGGSLRLSCAASGMICGVYAMGWYRQAPGKERELVAAIDGNGSSTYYADSVKGRFTISRDNAKNTVYLQMNSLKPEDTAVYYCAAGYWSYLYYWYDFDYWGQGTQVTVSS low polyreactivity
QVQLVESGGGLVQAGGSLRLSCAASGSTFYTNDMGWYRQAPGKERELVAAITSAGNTNYADSVKGSFTISRDNAKNTVYLQMNSLKPEDTAVYYYYYYQYDYWGQGTQVTVSS low polyreactivity
QVQLVESGAGLVQAGGSLRLSCAASGITFGRYTMGWYRQAPGKERELVAAITNGDITYYADSVKGRFTISRDNAKNTVYLQMNSLKPEDTAVYYCAADRSFWYDYWGQGTQVTVSS high polyreactivity
QVQLVESGGGLVQAGGSLRLSCAASGRIFLRNAMGWYRQAPGKERELVANITSRGGSTYYADSVKGRFTISRDNAKNTVYLQMNSLKPEDTAVYYCAADPRRYRGFGYVYGGFYYWGQGTQVTVSS low polyreactivity

// switching to the query sequence
Value of polyreactivity (PSR sort gate) reported for the sequence QVQLVESGGGLVQAGGSLRLSCAASGRIFGRYAMGWYRPAPGKEREFVAAISKRGGGTYYADSVKGRFTISRDNAKNTVYLQMNSLKPEDTAVYYCAVDNSPGFDDYDYWGQGTQVTVSS is high polyreactivity

----------
Test: yeast display, Sf9 membrane polyspecificity reagent, FACS + sequencing; frameworks hold sequencing errors
experimental-readout: polyreactivity (PSR sort gate)

Study these solved cases before continuing.
QVQLVESGGGLVQAGGSLRLSCAASGRILGRNAMGRYRQAPGKEREFVAGISYSGTSTYYADSVKGRFTISRDNAKNTVYLQMNSLKPEDTAVYYCAARSTWFQIRYGYWGQGTQVTVSS high polyreactivity
QVQLQGSGGGLVQAGGSLRLSCAASGYIFQNVPMGWNRQAPGKERELVAGIDNGTSTNYADSVNGRFTISRDNAKNTVYLQMNSLNPVDTAVYYCAAAGQADDTLGYWGQGTQVTVSS low polyreactivity
QVQLVESGGGLVQAGGSLRLSCAASGSTFDVNAMGSYRQAPGKERELVAAISWNSGSTYFADSVKGRFTISRDNAKNTVYLQMNRLKPEDTAVYYCAATYGTGRRSKYGYWGQGTQVTVSS high polyreactivity
QVQLVESGGVLVQPRGSLRLICAASGSTLAGNAMGWYRQAPGKEREFVAAISWSGGRTYYADSVKGRFTISRDNAKMTVYLQMNRMKPEDTAVYYCAARRGQTRYQYYYWGQGTQVTVSS high polyreactivity
QVQLVESVGGLVQAGGSLRLSCAASGSIFYYNTMGWYRQAPGKVRELVATISSDGGTNYADSVKGRFTISRDNAKNTVYLQMNSLKPEDTAVYYCAAAVSPYSYWPGFDYWGQGTQVTVSS low polyreactivity

Value of polyreactivity (PSR sort gate) reported for the sequence QVQLVESGGGLVQAGGSLRLSCGASGSTSDIYAMGWYRQAPGKESEFGAAISLTGGTTYYADSVKGRFTISCENAKNTVYLQMNSLKQEDTAVYYCNADVGWWGYDDDYWGQGTQVTVSS is high polyreactivity

Value of polyreactivity (PSR sort gate) reported for the sequence QVQLVESGGGLVQAGGSLRLSCAASGRIFYHNTMGWYRQAPGKERELVAAIRSGSSSYYADSVKGRFTISRDNAKNTVYLQMNSLKPEDTAVYYCNARPWYSWGVDYDYWGQGTQVTVSS is low polyreactivity

----------
Assay: yeast display, Sf9 membrane polyspecificity reagent, FACS + sequencing; frameworks hold sequencing errors
experimental-readout: polyreactivity (PSR sort gate)

Study these solved cases before continuing.
QVQLVESGGGLVQAGGSLRLSCAASGRTFRRYAMGWYRQAPGKERELVAVISRGGSTHYADSVKGRFTISRDNAKNTVYLQMNSLKPEDTAVYYCNAVVSVYTQDLDYWGQGTQVTVSS high polyreactivity
QVQLVESGGGLVQAGGSLRLSCAASGRTFVGYTMGWYRQAPGKERELVAAIDLSDGSTSYADSVKGRFTISRDNAKNSVYLQMNSLKPEDTAVYYCAKTWANVYAGAHDYWGQGTQVTVSS low polyreactivity
QVQLLESGGGLVQAGGSLRLICSASGRTFSGYALGWYRHSPGRERELVAAITSSGSSKYYADSVKGRFTISRDKAKYTVYLQMKSLKPEDTAVYYCAATPQAHSEPYFYQRKYDFWGEGTQVTVSS low polyreactivity
QVQLVESGGGLVQAGGSLRLSCAASGRIFVAYAMGWYRQAPGKERELVADIDYIDGSTYYADSVKGRFTISRDNAKNTVYLQMNSLKPEDTAVYYCAVDSLYYAGYYDYWGQGTQVTVSS high polyreactivity

Value of polyreactivity (PSR sort gate) reported for the sequence QVQHVESGGGLVQAGGSLRLSCAASGIIFYSYTMGWYRQAPGKDRELVAAISRNGGGTYYADSVKGRFTSSRDIAKNTGYLQMNSLKPEHTAVYYCAAGWRFGRYSGDYWGQGTQVTVSS is high polyreactivity
